# Test system: SH-SY5Y cells
# ASSAY METHOD TEXT: Cell viability dose-response screening, MTT
# Assay type: cell-based, human
# CONDITION: 24 h, screening 0.5 µM to 20 µM
Entries and their measured highest nontoxic concentration follow.
QUANTITY: highest nontoxic concentration (µM)

[
  {
    "SMILES TEXT": "CCN(C)C(=O)Oc1cccc(CNC(=O)c2cc3cc(O)ccc3[nH]2)c1",
    "QUANTITY": "highest nontoxic concentration",
    "MEASUREMENT UNITS": "µM",
    "MEAS VALUE": 2.5
  },
  {
    "SMILES TEXT": "CCN(C)C(=O)Oc1cccc(CCNC(=O)c2cc3ccccc3[nH]2)c1",
    "QUANTITY": "highest nontoxic concentration",
    "MEASUREMENT UNITS": "µM",
    "MEAS VALUE": 5
  },
  {
    "SMILES TEXT": "CCN(C)C(=O)Oc1cccc(NC(=O)c2cc3cc(O)ccc3[nH]2)c1",
    "QUANTITY": "highest nontoxic concentration",
    "MEASUREMENT UNITS": "µM",
    "MEAS VALUE": 2.5
  },
  {
    "SMILES TEXT": "CCN(C)C(=O)Oc1cccc(CNC(=O)c2cc3cccc(O)c3[nH]2)c1",
    "QUANTITY": "highest nontoxic concentration",
    "MEASUREMENT UNITS": "µM",
    "MEAS VALUE": 10
  },
  {
    "SMILES TEXT": "CCN(C)C(=O)Oc1cccc(NC(=O)c2cc3cccc(O)c3[nH]2)c1",
    "QUANTITY": "highest nontoxic concentration",
    "MEASUREMENT UNITS": "µM",
    "MEAS VALUE": 2.5
  },
  {
    "SMILES TEXT": "CCN(C)C(=O)Oc1cccc(CCNC(=O)c2cc3cc(O)ccc3[nH]2)c1",
    "QUANTITY": "highest nontoxic concentration",
    "MEASUREMENT UNITS": "µM",
    "MEAS VALUE": 2.5
  },
  {
    "SMILES TEXT": "CCN(C)C(=O)Oc1cccc(NC(=O)c2cc3ccccc3[nH]2)c1",
    "QUANTITY": "highest nontoxic concentration",
    "MEASUREMENT UNITS": "µM",
    "MEAS VALUE": 1
  },
  {
    "SMILES TEXT": "CCN(C)C(=O)Oc1cccc(CCNC(=O)c2cc3cccc(O)c3[nH]2)c1",
    "QUANTITY": "highest nontoxic concentration",
    "MEASUREMENT UNITS": "µM",
    "MEAS VALUE": 5
  }
]
